Tested on: COLO 205 colon
Experiment: NCI-60 one-dose screen, 48 h (100 = growth as untreated, 0 = no growth, -100 = all killed)
Details: 10 µM unless noted
Experimental: Cells are grown in 96 well plates and exposed to the test compound for 48 hours. Compounds are tested at a single concentration, which is 10^-5 M for most compounds. The reported endpoint is percent growth (GI% or GIPRCNT), where numbers from 0 - 100% represent growth inhibition, and numbers from -100% - 0 represent cell death. For example, a value of 40 represents 60% growth inhibition. A value of 0 means no net growth occurred over the course of the experiment. […]
Compounds without any hit were thinned out: in the full panel of roughly 83,000, 20% have a hit.
# binarize growth: threshold -50% inclusive, high side met, low side not met

Answered examples (4):
[[record]]
mol_smiles = "COc1cc2c(Oc3ccc4[nH]c(C)cc4c3F)ncnc2cc1OCCCN1CCCC1"
answer_label = "met"

[[record]]
mol_smiles = "CCCCn1c(C)nc2ccc(Nc3nc(N4CCN(C)CC4)nc4nc[nH]c34)cc21"
answer_label = "met"

[[record]]
mol_smiles = "CCN1CCN(c2nc(C)cc(N(CCCNc3ccnc4cc(Cl)ccc34)Cc3ccc4c(c3)OCO4)n2)CC1"
answer_label = "not met"

[[record]]
mol_smiles = "COc1cc(-c2cc(-c3ccc(Nc4ccnc5cc(Cl)ccc45)cc3)nc(N3CCOCC3)n2)cc(OC)c1OC"
answer_label = "met"


From here, focus on the item given below.
Given the entry O=C(NO)c1ccc(Cn2c(=O)n(-c3ccccc3F)c(=O)c3ccccc32)cc1 , answer whether its growth meets or surpasses -50%.
not met

###

system: TK-10 renal; test: NCI-60 one-dose screen, 48 h (100 = growth as untreated, 0 = no growth, -100 = all killed); conditions: 10 µM unless noted
The panel holds about 83,000 compounds, 20% with a hit somewhere; the sample as a whole holds those more often.
Category key, based on recorded growth: lower band = under 30%, central band = from 30% up to 80%, upper band = 80% and over

Reference set (2 entries):
[[record]]
compound = "COc1cc2nc(Nc3cccc(Cl)c3)nc(N)c2cc1OC"
answer_label = "upper band"

[[record]]
compound = "O=C(NOCCO)c1cc(CN2OCCCC2=O)c(F)c(F)c1Nc1ccc(I)cc1F"
answer_label = "central band"


// return the class label for CC[C@H](Nc1ncnc2nc[nH]c12)c1nc2cccc(F)c2c(=O)n1-c1ccccc1
lower band

Category lookup for the compound O=C1C=CC2(NN=C(c3ccccc3)N2c2cccc(Cl)c2)C(Cl)=C1 (stereo unspecified)
upper band

Hi there! Could you help me figure out the category for COC(=O)Nc1nc2ccc(C(=O)c3ccc(N(C)C4COC4)cc3)cc2[nH]1 please?
central band

Which band does CC(N)C(Cc1ccccc1)c1ccc(Cl)cc1 (stereo unspecified) fall in?
upper band

Dear colleague, I would appreciate it if you could identify the bin for Cc1nc(N)sc1-c1ccnc(Nc2ccc(N3CCOCC3)cc2)n1 and reply at your convenience.
central band

Just checking, what class would you give COC(=O)[C@@H](NC(=O)[C@@H](OC)[C@@H]1Cc2cc3cc(OC4CC(OC5CC(O)C(O)C(C)O5)C(O)C(C)O4)c(C)c(O)c3c(O)c2C(=O)[C@H]1OC1CC(OC2CC(OC3CC(C)(O)C(O)C(C)O3)C(O)C(C)O2)C(O)C(C)O1)C(C)C (stereo partly specified) here?
lower band

Sort into band: CCNC(=O)C#Cc1ccc2c(C(=Nc3ccc(CN(C)C)cc3)c3ccccc3)c(O)[nH]c2c1
lower band

###

Listed below: growth values for each entry.
system: SNB-75 CNS; experiment: NCI-60 one-dose screen, 48 h (100 = growth as untreated, 0 = no growth, -100 = all killed); conditions: 10 µM unless noted
The panel holds about 83,000 compounds, 20% with a hit somewhere; the sample as a whole holds those more often.
Answer with a number only, understood to be in %.

[[record]]
mol_smiles = "COc1ccc2nc3cc(Cl)ccc3c(Nc3ccc(N(C)C)cc3)c2c1"
recorded_result = 111

[[record]]
mol_smiles = "CSC1=C(N)C(=O)c2[nH]cc(CO)c2C1=N"
recorded_result = -80.2

[[record]]
mol_smiles = "CCCCN1C(=O)c2cccc3c(-c4ccc5c(c4)ncn5C4CCCCC4)ccc(c23)C1=O"
recorded_result = 92.3

[[record]]
mol_smiles = "C=C1C(=O)O[C@H]2[C@H]1CC/C(Cn1cc(-c3cc(C)c(C)cc3C)nn1)=C\\CC[C@@]1(C)O[C@@H]21"
recorded_result = 29

[[record]]
mol_smiles = "C=CCn1c(=O)c2cnc(Nc3ccc(N4CCN(C)CC4)cc3)nc2n1-c1cccc(C(C)(C)O)n1"
recorded_result = 3.88

[[record]]
mol_smiles = "CC(C)(C)c1nc(-c2cccc(NS(=O)(=O)c3c(F)cccc3F)c2F)c(-c2ccnc(N)n2)s1"
recorded_result = 107


Name the recorded growth for CCN(CCO)CCCOc1ccc2c(Nc3cc(CC(=O)Nc4cccc(F)c4)[nH]n3)ncnc2c1 .
76.3

Reported growth, compound COc1cc2ncnc(Nc3ccc(F)c(Cl)c3)c2cc1NC(=O)/C=C/CN1CCCCC1 : ____
-97.8

Name the recorded growth for O=C(NOCCO)c1ccc2cncn2c1Nc1ccc(I)cc1F .
81.1

// returns reported growth for input COc1cnc2c(c1)C(=O)c1c-2n(CCCN2CCC(O)CC2)c(=O)c2cc(Cl)ccc12
49.1

Looking for the measured growth of CN(C)C/C=C/C(=O)Nc1cc2c(Nc3ccc(F)c(Cl)c3)ncnc2cc1O[C@H]1CCOC1 , can you help?
-1.97

Need growth, item Cc1ccc(Nc2nccc(N(C)c3ccc4c(C)n(C)nc4c3)n2)cc1S(N)(=O)=O
-25.9

###

test system: LOX IMVI melanoma; test: NCI-60 one-dose screen, 48 h (100 = growth as untreated, 0 = no growth, -100 = all killed); settings: 10 µM unless noted
About 83,000 compounds went through this panel and 20% of them were active in at least one assay; those are over-represented in the sample as a whole.
MEASUREMENT NAME: growth (%)
Number in %, nothing else.

Reference set, count: 3
[[record]]
compound = "O=c1[nH]c(N2CCOCC2)nc2scc(-c3ccccc3)c12"
system = "LOX IMVI melanoma"
measurement_name = "growth"
recorded_result = 100

[[record]]
compound = "Oc1ccc(/C=N/Nc2nnc(N/N=C/c3ccc(O)cc3O)c3ccccc23)c(O)c1"
system = "LOX IMVI melanoma"
measurement_name = "growth"
recorded_result = -51.4

[[record]]
compound = "COc1cc2cc(NCc3ccc(Cl)cc3)nc(C)c2cc1OC"
system = "LOX IMVI melanoma"
measurement_name = "growth"
recorded_result = 5.76


Please examine the following record next.
Give its growth value. Item: COC(=O)[C@H](Cc1ccc(O)cc1)NC(=O)[C@@H](OC)[C@@H]1Cc2cc3cc(OC4CC(OC5CC(O)C(O)C(C)O5)C(O)C(C)O4)c(C)c(O)c3c(O)c2C(=O)[C@H]1OC1CC(OC2CC(OC3CC(C)(O)C(O)C(C)O3)C(O)C(C)O2)C(O)C(C)O1 (some centres undefined)
-31.2

###

tested on: ACHN renal; assay: NCI-60 one-dose screen, 48 h (100 = growth as untreated, 0 = no growth, -100 = all killed); conditions: 10 µM unless noted
About 83,000 compounds went through this panel and 20% of them were active in at least one assay; those are over-represented in the sample as a whole.
I'd appreciate it if you marked entries fulfilled when growth is lower than 40% and not fulfilled when it is not.

Some entries whose results are on file:
[[record]]
compound = "COc1cc2nccc(Oc3ccc(NC(=O)C4(C(=O)Nc5ccc(F)cc5)CC4)cc3)c2cc1OC"
answer_label = "fulfilled"

[[record]]
compound = "COC(=O)[C@H](Cc1ccc(O)cc1)NC(=O)[C@@H](OC)[C@@H]1Cc2cc3cc(OC4CC(OC5CC(O)C(O)C(C)O5)C(O)C(C)O4)c(C)c(O)c3c(O)c2C(=O)[C@H]1OC1CC(OC2CC(OC3CC(C)(O)C(O)C(C)O3)C(O)C(C)O2)C(O)C(C)O1 (some centres not stated)"
answer_label = "fulfilled"

[[record]]
compound = "COc1cc2c(Oc3ccc(NC(=O)C4(C(=O)Nc5ccc(F)cc5)CC4)cc3F)ccnc2cc1OCCCN1CCOCC1"
answer_label = "fulfilled"


API: query returns whether the compound falls strictly under 40% in growth. Query: CN1CCN(Cc2ccc(NC(=O)c3[nH]ncc3Nc3ncnc4sc5c(c34)CCCC5)cc2)CC1
fulfilled

Consider the compound N#Cc1ccc(-n2nnc3ccccc32)cc1C#N . Is its growth strictly less than 40%?
not fulfilled

In the record for Cc1cn(-c2cc(NC(=O)c3ccc(C)c(Nc4nccc(-c5cnccn5)n4)c3)cc(C(F)(F)F)c2)cn1 , is growth less than 40%?
not fulfilled

Regarding CC(C)c1ccc(/C=N/Nc2nc3ccccc3s2)cc1 , kindly confirm whether its growth is beneath 40%.
not fulfilled

hey, is growth for NC(=O)c1n[nH]n2c1nc(=O)c1c3c(sc12)CCCC3 lower than 40% or not?
not fulfilled

Does the reported growth of the following compound sit strictly below 40%? C=CC(=O)Nc1cc(Nc2nccc(-c3cn(C)c4ccccc34)n2)c(OC)cc1N(C)CCN(C)C
fulfilled

Hello, I'm reviewing records and need to know if growth of O=C(O)C1(Cc2cccc(Nc3nccs3)n2)CCC(Oc2cccc(Cl)c2F)CC1 (configuration not stated) is below 40%. Could you check?
not fulfilled

Hello, I'm reviewing records and need to know if growth of Oc1ccc(C(c2ccc(O)cc2)C(Cl)(Cl)Cl)cc1 is below 40%. Could you check?
not fulfilled

I wonder whether C[C@@H](Oc1cc(-n2cnc3ccc(CN4CCN(C)CC4)cc32)sc1C(N)=O)c1ccccc1C(F)(F)F has growth below 40%. Can you tell?
fulfilled

Is growth strictly under 40% for the entry O=C(Nc1cn[nH]c1-c1nc2ccc(CN3CCOCC3)cc2[nH]1)NC1CC1 ?
fulfilled

Could you please tell me whether growth recorded for Cc1c(N)ccc(-c2ccc(N)c(C)c2S(=O)(=O)O)c1S(=O)(=O)O is less than 40%?
not fulfilled

Bench note: check whether Cc1csc(-c2nnc(Nc3ccc(Oc4ncccc4-c4ccnc(N)n4)cc3)c3ccccc23)c1 shows growth below 40%
fulfilled

Below 40% on growth? Entry O=C(NO)c1ccc(Cn2c(=O)n(-c3ccccc3F)c(=O)c3ccccc32)cc1
fulfilled

# strict comparison: is reported growth < 40%? input = CC(=O)Nc1cccc(-n2c(=O)n(C3CC3)c(=O)c3c(Nc4ccc(I)cc4F)n(C)c(=O)c(C)c32)c1
not fulfilled

Cited source: PubChem BioAssay (NCI)
